Kindly state pIC50 for each of the entries shown.
Biological target: Protein kinase C (PKC)
Assay: Protein kinase C inhibition (histone H1 phosphorylation, 32P-ATP)
Conditions: histone H1 substrate; enzyme from rat brain; 20 μM ATP; pH 7.5; 10 min
Experimental: The protein kinase C (PKC) assay is designed to duplicated the in vivo conditions required for protein kinase C function. Therefore, pH, salt and cofactor concentrations are similar to physiologic levels. Histone Hl (lysine rich) is used in the assay as the phosphorylation acceptor protein because it is readily available and serves as a good substrate for protein kinase C. […] The amount of phosphorylation is determined by the radioactivity measured in a scintillation counter. […]
Counter-ions that a name gives are not always drawn.
One number for each entry, as −log10 of the molar value.

| compound | system-name | recorded-metric | number |
| --- | --- | --- | --- |
| O=C1c2ccccc2C(=O)c2c(NCC(O)CNCc3ccccc3)ccc(NCC(O)CNCc3ccccc3)c21 (centres unmarked) [Compound 1b, Hydrochloride salt] | Protein kinase C (PKC) | pIC50 | 4.37 |

Q: Consider the compound shown here: CCCNCC(O)CNc1ccc(NCC(O)CNCCC)c2c1C(=O)c1ccccc1C2=O (centres unmarked) [Compound 1a, hydrochloride] What is its recorded pIC50?
Result: 3.70
